- target under test: UniProt:P03372
- procedure details: Degradation of ERα in T-47D cells (immunoblotting, 4 h)
- Assay type: cell-based
- Design: host or cells: T-47D
- measurement conditions: 1nM compound
- Description: T-47D cells were inoculated into 6-well plates at a density of 3×10^5 cells/well and cultured at 37°C, 5% CO2 for 24 h. After the cells were attached to the wall, 1µL of the compound solution in dimethyl sulfoxide (final concentration 0.15-1000 nM) was added and continued to be cultured in the incubator with 5% CO2 at 37°C for 4 h. […]
attribute measured: Degradation rate (%) of ERα in T-47D cells

molecule="CC(C)(C(=O)N1CCC2(CC1)COc1c2ccc2c1CN(C1CCC(=O)NC1=O)C2=O)N1CCC2(CCN(c3ccc([C@@H]4c5ccc(O)cc5CC[C@@H]4c4ccccc4)cc3)CC2)C1 (stereo partly shown)" readout_value=-1
molecule="C[C@@H]1Cc2c([nH]c3ccccc23)[C@@H](c2c(F)cc(N3CCC(C(=O)N4CCC(N5CCC6(CC5)COc5c6ccc6c5CN(C5CCC(=O)NC5=O)C6=O)CC4)CC3)cc2F)N1CC(F)F (stereo partly shown)" readout_value=43
molecule="O=C1CCC(N2Cc3cc4c(cc3C2=O)OC2(CC4)CN(C3CCC4(CC3)CCN(C3CCN(c5ccc([C@@H]6c7ccc(O)cc7CC[C@@H]6c6ccccc6)cc5)CC3)CC4)C2)C(=O)N1 (stereo partly shown)" readout_value=20
molecule="O=C1CCC(N2Cc3c(ccc4c3OCC43CCN(C(=O)[C@H]4C[C@H](OC5CCN(c6ccc([C@@H]7c8ccc(O)cc8CC[C@@H]7c7ccccc7)cc6)CC5)C4)CC3)C2=O)C(=O)N1 (stereo partly shown)" readout_value=47
molecule="O=C1CCC(N2Cc3cc4c(cc3C2=O)OCC42CCN(CC3CCN(c4ccc([C@@H]5c6ccc(O)cc6CC[C@@H]5c5ccccc5)cc4)CC3)CC2)C(=O)N1 (stereo partly shown)" readout_value=-6
molecule="O=C1CCC(N2C(=O)c3ccc4c(c3C2=O)OCC42CCN(C3CCC4(CC3)CCN(c3ccc([C@@H]5c6ccc(O)cc6CC[C@@H]5c5ccccc5)cc3)CC4)CC2)C(=O)N1 (stereo partly shown)" readout_value=9
molecule="O=C1CCC(N2Cc3c(ccc4c3OCC43CCN(C(=O)CN4CCC5(CCN(c6ccc([C@@H]7c8ccc(O)cc8CC[C@@H]7c7ccccc7)cc6)CC5)C4)CC3)C2=O)C(=O)N1 (stereo partly shown)" readout_value=67
molecule="O=C1CCC(N2Cc3cc4c(cc3C2=O)OC2(CC4)CN(C3CC4(CCC5(CC4)CN(c4ccc([C@@H]6c7ccc(O)cc7CC[C@@H]6c6ccccc6)cc4)C5)C3)C2)C(=O)N1 (stereo partly shown)" readout_value=1
molecule="C[C@@H]1Cc2c(ccc3[nH]ncc23)C(c2ccc(N3CCC(C(=O)N4CCC(N5CCC6(CC5)COc5c6ccc6c5CN(C5CCC(=O)NC5=O)C6=O)CC4)CC3)cn2)N1CC(F)(F)F (stereo partly shown)" readout_value=3
molecule="CN(C1CCN(c2ccc([C@@H]3c4ccc(O)cc4CC[C@@H]3c3ccccc3)cc2)CC1)[C@H]1CC[C@@H](C(=O)N2CCC3(CC2)COc2c3ccc3c2CN(C2CCC(=O)NC2=O)C3=O)CC1 (stereo partly shown)" readout_value=74

---

- target under test: ERα (Homo sapiens, UniProt P03372)
- Sequence (P03372 1-595): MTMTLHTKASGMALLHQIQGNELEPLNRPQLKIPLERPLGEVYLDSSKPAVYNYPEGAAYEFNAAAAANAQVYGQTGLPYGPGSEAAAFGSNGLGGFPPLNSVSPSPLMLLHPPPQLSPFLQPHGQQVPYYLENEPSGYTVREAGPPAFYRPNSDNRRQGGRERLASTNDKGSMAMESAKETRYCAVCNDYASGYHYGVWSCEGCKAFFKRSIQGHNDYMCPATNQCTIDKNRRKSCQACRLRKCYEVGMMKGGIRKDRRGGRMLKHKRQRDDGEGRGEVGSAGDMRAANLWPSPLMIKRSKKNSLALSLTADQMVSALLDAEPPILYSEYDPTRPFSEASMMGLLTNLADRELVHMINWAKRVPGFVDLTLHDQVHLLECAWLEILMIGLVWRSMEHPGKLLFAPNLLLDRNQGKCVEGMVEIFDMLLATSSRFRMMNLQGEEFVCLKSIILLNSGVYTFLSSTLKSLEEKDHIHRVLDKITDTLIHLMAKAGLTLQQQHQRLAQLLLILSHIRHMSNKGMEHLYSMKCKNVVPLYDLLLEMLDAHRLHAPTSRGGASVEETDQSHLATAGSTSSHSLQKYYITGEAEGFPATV
- procedure details: Degradation of ERα in T-47D cells (immunoblotting, 4 h)
- Assay type: cell-based
- Parameters: host or cells: T-47D
- measurement conditions: 10nM compound
Items are presented alongside their recorded Degradation rate (%) of ERα in T-47D cells.
attribute measured: Degradation rate (%) of ERα in T-47D cells

compound="C[C@@H]1Cc2c(ccc3[nH]ncc23)[C@@H](c2c(F)cc(N3CCC4(CCN(CC(=O)N5CCC6(CC5)COc5c6ccc6c5CN(C5CCC(=O)NC5=O)C6=O)CC4)CC3)cc2F)N1CC(F)F (some centres unmarked) [C10]" readout_value=80
compound="O=C1CCC(N2C(=O)c3cc4c(cc3C2=O)OC2(CC4)CN(CC3CCC4(CC3)CCN(c3ccc([C@@H]5c6ccc(O)cc6CC[C@@H]5c5ccccc5)cc3)CC4)C2)C(=O)N1 (some centres unmarked) [A41]" readout_value=17
compound="O=C1CCC(N2Cc3c(ccc4c3OCC43CCN(C4CCC(OC5CCN(c6ccc([C@@H]7c8ccc(O)cc8CC[C@@H]7c7ccccc7)cc6)CC5)CC4)CC3)C2=O)C(=O)N1 (some centres unmarked) [K50]" readout_value=84
compound="O=C1CCC(N2C(=O)c3ccc4c(c3C2=O)OCC42CCN(C(=O)CN3CCC4(CC3)CCN(c3ccc([C@@H]5c6ccc(O)cc6CC[C@@H]5c5ccccc5)cc3)CC4)CC2)C(=O)N1 (some centres unmarked) [A68]" readout_value=77
compound="O=C1CCC(N2Cc3c(ccc4c3OCC43CCN(C4CCN(C5CC6(CCN(c7ccc([C@@H]8c9ccc(O)cc9CC[C@@H]8c8ccccc8)cc7)CC6)C5)[C@H](C(=O)NC5CCCC5)C4)CC3)C2=O)C(=O)N1 (some centres unmarked) [H44]" readout_value=85

---

- target under test: ERα (Homo sapiens)
- procedure details: Degradation of ERα in T-47D cells (immunoblotting, 4 h)
- Type: cell-based
- Set-up: host or cells: T-47D
- measurement conditions: 1nM compound
Degradation rate (%) of ERα in T-47D cells by entry:
attribute measured: Degradation rate (%) of ERα in T-47D cells

molecule="O=C1CCC(N2C(=O)c3cc4c(cc3C2=O)OCC2(CCN(CC3CCC5(CC3)CCN(c3ccc([C@@H]6c7ccc(O)cc7CC[C@@H]6c6ccccc6)cc3)CC5)CC2)C4)C(=O)N1 (some centres unmarked) [A42]" readout_value=41%
molecule="O=C1CCC(N2Cc3c(ccc4c3OCC43CCN(CC4(F)CCN(CC5CCN(c6ccc([C@@H]7c8ccc(O)cc8CC[C@@H]7c7ccccc7)cc6)CC5)CC4)CC3)C2=O)C(=O)N1 (some centres unmarked) [N6]" readout_value=35%
molecule="O=C1CCC(N2Cc3c(ccc4c3OCC43CCN(C(=O)CN4CCN(C(=O)C5CCN(c6ccc([C@@H]7c8ccc(O)cc8CC[C@@H]7c7ccccc7)cc6)CC5)CC4)CC3)C2=O)C(=O)N1 (some centres unmarked) [K43]" readout_value=66%
molecule="O=C1CCC(N2Cc3c(ccc4c3OCC43CCN(C(=O)CC4CCN(C(=O)C5CCN(c6ccc([C@@H]7c8ccc(O)cc8CC[C@@H]7c7ccccc7)cc6)CC5)CC4)CC3)C2=O)C(=O)N1 (some centres unmarked) [A123]" readout_value=66%
molecule="C[C@@H]1Cc2c(ccc3[nH]ncc23)[C@@H](c2c(F)cc(N3CCC4(CCN(CC(=O)N5CCC6(CC5)COc5c6ccc6c5CN(C5CCC(=O)NC5=O)C6=O)CC4)CC3)cc2F)N1CC(F)F (some centres unmarked) [C10]" readout_value=65%
molecule="O=C1CCC(N2C(=O)c3ccc4c(c3C2=O)OCC42CCN(C3CC4(C3)CN(c3ccc([C@@H]5c6ccc(O)cc6CC[C@@H]5c5ccccc5)cc3)C4)CC2)C(=O)N1 (some centres unmarked) [L19]" readout_value=12%
molecule="O=C1CCC(N2Cc3c(ccc4c3OCC43CCN(C4CCC5(CC4)CN(c4ccc([C@@H]6c7ccc(O)cc7CC[C@@H]6c6ccccc6)cc4)C5)CC3)C2=O)C(=O)N1 (some centres unmarked) [L11]" readout_value=14%
molecule="O=C1CCC(N2Cc3cc4c(cc3C2=O)C2(CCN(CC3CCN(c5ccc([C@@H]6c7ccc(O)cc7CC[C@@H]6c6ccccc6)cc5)CC3)CC2)CO4)C(=O)N1 (some centres unmarked) [H6]" readout_value=-35%
molecule="CN(CC1CCN(c2ccc([C@@H]3c4ccc(O)cc4CC[C@@H]3c3ccccc3)cc2)CC1)[C@H]1CC[C@H](C(=O)N2CCC3(CC2)COc2c3ccc3c2CN(C2CCC(=O)NC2=O)C3=O)CC1 (some centres unmarked) [N3]" readout_value=30%
molecule="O=C1CCC(N2Cc3c(ccc4c3OCC43CCN(C4CCN(C(=O)C5CCN(c6ccc([C@@H]7c8ccc(O)cc8CC[C@@H]7c7ccccc7)cc6)CC5)[C@@H](C(=O)N5CC(F)(F)C5)C4)CC3)C2=O)C(=O)N1 (some centres unmarked) [C4]" readout_value=54%
molecule="O=C1CCC(N2Cc3ccc4c(c3C2=O)OCC2(CCN(CC3CCN(c5ccc([C@@H]6c7ccc(O)cc7CC[C@@H]6c6ccccc6)cc5)CC3)CC2)C4)C(=O)N1 (some centres unmarked) [H5]" readout_value=18%
